Where do these numbers come from? They come from ChEMBL document CHEMBL1157926.

system: Saccharomyces cerevisiae; assay: Growth inhibition of Saccharomyces cerevisiae BY4741 at 150 uM up to 180 mins; assay type: functional, organism-based
Activity calls are given as the source filed them. No cut-off for these calls is given here.
ASSAY_ENDPOINT: growth inhibition (GI)

COc1ccc(/C=C/c2cc(OC)c(OC)c(OC)c2)cc1B(O)O | inactive
COc1ccc(/C=C/c2cc(OC)c(OC)c(OC)c2)c(O)c1O | inactive
COc1ccc(/C=C\c2cc(OC)c(OC)c(OC)c2)cc1[N+](=O)[O-] | inactive
